Origin of values: patent US20180305334A1

Recorded pIC50 values for a group of compounds are listed next.
system: TDP-43 aggregation in PC12 cells stably expressing TDP-43^Q331K::eGFP; test: In vitro efficacy assay, TDP-43 aggregation concentration-response; type: cell-based; conditions: inhibition of TDP-43 aggregation; PC12 TDP-43^Q331K::eGFP, 1 hour pre-treatment, 15 μM sodium arsenite for 23 hours; 10-point dose response
pIC50: −log10 of the molar value.

Example entries and their recorded answers appear below.
CCN(CC1CCCN(C(C)(C)c2cc3ccccc3o2)C1)C(=O)c1cc2ccccc2[nH]1 (stereo not drawn) = > 5.82
CCN(CC1CCCN(C(C)(C)Cc2cccc(Cl)c2)C1)C(=O)c1cc2ccccc2[nH]1 (stereo not drawn) = > 5.82
CCN(CC1CCCN(C(C)(C)Cc2cccc(OC)c2)C1)C(=O)c1cc2cc(OC)ccc2[nH]1 (stereo not drawn) [Compound 334] = > 5.82

**Query** For CCN(CC1CCCN(C(C)(C)Cc2cccc(OC(F)(F)F)c2)C1)C(=O)c1cc2cc(OC(F)(F)F)ccc2[nH]1 (stereo not drawn) [Compound 337] , what is its reported pIC50?
**Result** > 5.82

**Query** Now the compound CCN(CC1CCCN(C(C)(C)Cc2cccc(OC)c2)C1)C(=O)c1cc2ccccc2[nH]1 (stereo not drawn)
**Result** 5.40 to 5.82

**Query** Now try CCN(CC1CCCN(C(C)(C)Cc2cccc(OC(F)(F)F)c2)C1)C(=O)c1cc2cc(OC(F)(F)F)ccc2[nH]1 (stereo not drawn) [compound 316] .
**Result** 5.15 to 5.40

###

Measured IC50 values are reported for all entries that follow.
test system: TDP-43 inclusions in PC12 cells stably expressing wild type (WT) TDP-43-GFP; assay: Dose response assay for TDP-43 inhibition; assay type: cell-based; conditions: Rattus norvegicus, PC-12, inhibition of TDP-43 inclusions, stressed with 15 μM, 12-point dose response

Field: example entries. Status: answers known.
COc1ccccc1OCC(=O)NC1CCCN(c2nc3ccccc3s2)C1 (stereo not drawn) [Compound 102] = 0.251 to 0.5 µM
CCN(CC1CCCN(CCc2cccc(OC)c2)C1)C(=O)c1cc2ccccc2[nH]1 (stereo not drawn) [Compound 101] = 0.101 to 0.25 µM

**Query** Look up IC50 for this compound: COc1cc(NC(=O)CCC2CCCN(Cc3ccc(F)c(OC)c3)C2)cc(OC)c1 (stereo not drawn) [Compound 100]
**Result** 0.101 to 0.25 µM

###

Test system: TDP-43 aggregation in PC12 cells stably expressing TDP-43^Q331K::eGFP
Experiment: In vitro efficacy assay, TDP-43 aggregation concentration-response
Assay type: cell-based
Details: inhibition of TDP-43 aggregation; PC12 TDP-43^Q331K::eGFP, 1 hour pre-treatment, 15 μM sodium arsenite for 23 hours; 10-point dose response
Experimental: Exemplary compounds of the invention were evaluated for efficacy in inhibiting TDP-43 inclusions using a concentration-response assay. […] The inhibitory effect on TDP-43 aggregation was measured using fluorescence microscopy. The ratio of cells with TDP-43 aggregates was calculated based on the total number of cells with detectable GFP expression.
pIC50: −log10 of the molar value.
Below, each of the compounds is paired with its reported pIC50 value.

Consider the following illustrative entries.
CCN(CC1CCCN(C(C)(C)Cc2cccc(OC(F)F)c2)C1)C(=O)c1cc2cc(OC(F)F)ccc2[nH]1 (stereo not shown) = > 5.82
CCN(CC1CCN(CC(C)(C)c2cc3ccccc3o2)CC1)C(=O)c1cc2ccccc2[nH]1 = > 5.82
CCN(CC1CCCN(Cc2ccc(Cl)cc2)C1)C(=O)c1cc2ccc(Cl)cc2[nH]1 (stereo not shown) = > 5.82

**Query** # pIC50 lookup, item CCN(CC1CCCN(C(C)(C)Cc2cccc(OC)c2)C1)C(=O)c1cc2cc(OC)ccc2[nH]1 (stereo not shown) [compound 313]
**Result** < 5.00
